- Tested on: PPARg:RXRa (NR concentration 180 nM, RXRa partner concentration 90 nM)
- assay-details: PBM binding z-score (relative to random genomic background probes); higher = stronger binding; sequences stand for … in GC…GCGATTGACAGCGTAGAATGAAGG
Would you mind labelling by PBM binding z-score? At or over 2 is 1.0, under is 0.0.

record-sequence: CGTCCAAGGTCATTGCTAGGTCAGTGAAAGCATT
class-label: 1.0
//
record-sequence: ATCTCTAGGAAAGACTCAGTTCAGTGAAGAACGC
class-label: 0.0
//
record-sequence: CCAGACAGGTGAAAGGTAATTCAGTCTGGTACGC
class-label: 1.0
//
record-sequence: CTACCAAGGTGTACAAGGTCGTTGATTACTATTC
class-label: 0.0
//
record-sequence: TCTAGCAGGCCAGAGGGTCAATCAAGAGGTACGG
class-label: 0.0
//
record-sequence: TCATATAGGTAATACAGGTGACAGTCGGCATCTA
class-label: 0.0
//
record-sequence: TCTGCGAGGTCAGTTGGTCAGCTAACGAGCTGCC
class-label: 1.0
//
record-sequence: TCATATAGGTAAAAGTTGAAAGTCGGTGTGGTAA
class-label: 1.0
//
record-sequence: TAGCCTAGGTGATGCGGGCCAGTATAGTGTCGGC
class-label: 0.0
//
record-sequence: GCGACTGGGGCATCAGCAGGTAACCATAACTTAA
class-label: 0.0
//
record-sequence: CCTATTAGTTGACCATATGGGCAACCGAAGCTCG
class-label: 0.0
//
record-sequence: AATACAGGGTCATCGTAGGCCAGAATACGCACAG
class-label: 1.0
